- Procedure details: qHTS drug screen for cell cycle checkpoint inhibitors in PARPi-resistant BRCA-mutant ovarian cancer cell lines. (AID 1963452)
- Reported conditions: PEO1/OlaR viability, CellTiter-Glo luminescence, 96 h; stronger effect = lower value
Reported metric: Z-AUC
Give a plain numeric answer without units written out.

Examples from the recorded data:
CN([C@@H](Cc1ccc(OS(=O)(=O)c2cccc3cnccc23)cc1)C(=O)N1CCN(c2ccccc2)CC1)S(=O)(=O)c1cccc2cnccc12 | 1.57
CC1(C)CNc2cc(NC(=O)c3cccnc3NCc3ccncc3)ccc21 | 1.35
O=C1CCc2cc(OCCCCc3nnnn3C3CCCCC3)ccc2N1 | -1.35
CNC[C@H](O)c1cccc(O)c1 | 0.649
COc1cc(Nc2ncc3c(n2)-c2ccc(Cl)cc2C(c2c(F)cccc2OC)=NC3)ccc1C(=O)O | -0.756

Proceed to the following item.
Ask: Using the record for CNCc1ccc(-c2[nH]c3cc(F)cc4c3c2CCNC4=O)cc1 , report its Z-AUC.
Reply: 0.567
